ASSAYED SYSTEM: PotF.4
CONDITION SUMMARY: SD, n = 3
pKd: −log10 of the molar value.
PROPERTY NAME: pKd

SMILES DATA: NCCCCN
PROPERTY NAME: pKd
MEASURED RESULT: 6.99

---

ASSAYED SYSTEM: LAO.2
PROTOCOL SUMMARY: Isothermal titration calorimetry of the purified protein with its cognate ligand at 25 °C in SEC running buffer (25 mM sodium phosphate, 500 mM NaCl, pH 7.4), fitted with a one-site binding model.
CONDITION SUMMARY: SD, n = 3
pKd: −log10 of the molar value.
PROPERTY NAME: pKd

SMILES DATA: NCCCC[C@H](N)C(=O)O
MEASURED RESULT: 6.21

---

ASSAYED SYSTEM: LAO.4
PROTOCOL SUMMARY: Isothermal titration calorimetry of the purified protein with its cognate ligand at 25 °C in SEC running buffer (25 mM sodium phosphate, 500 mM NaCl, pH 7.4), fitted with a one-site binding model.
CONDITION SUMMARY: SD, n = 3
pKd: −log10 of the molar value.
PROPERTY NAME: pKd

SMILES DATA: NCCCC[C@H](N)C(=O)O
PROPERTY NAME: pKd
MEASURED RESULT: 6.82

---

ASSAYED SYSTEM: TphC.2
PROTOCOL SUMMARY: Isothermal titration calorimetry of the purified protein with its cognate ligand at 25 °C in SEC running buffer (25 mM sodium phosphate, 500 mM NaCl, pH 7.4), fitted with a one-site binding model.
CONDITION SUMMARY: SD, n = 3
pKd: −log10 of the molar value.

SMILES DATA: O=C(O)c1ccc(C(=O)O)cc1
pKd: 6.20

---

ASSAYED SYSTEM: PotF.0 (Escherichia coli, UniProt P31133)
Sequence (P31133 27-370): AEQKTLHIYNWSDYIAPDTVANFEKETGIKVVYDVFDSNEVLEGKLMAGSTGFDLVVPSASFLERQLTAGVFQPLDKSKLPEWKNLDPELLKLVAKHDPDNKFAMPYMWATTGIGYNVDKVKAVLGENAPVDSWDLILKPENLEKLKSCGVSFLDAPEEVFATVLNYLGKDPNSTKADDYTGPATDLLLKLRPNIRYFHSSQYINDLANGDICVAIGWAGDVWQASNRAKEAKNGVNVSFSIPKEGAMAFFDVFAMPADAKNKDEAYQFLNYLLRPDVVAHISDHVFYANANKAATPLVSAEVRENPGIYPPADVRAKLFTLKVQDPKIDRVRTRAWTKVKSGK
PROTOCOL SUMMARY: Isothermal titration calorimetry of the purified protein with its cognate ligand at 25 °C in SEC running buffer (25 mM sodium phosphate, 500 mM NaCl, pH 7.4), fitted with a one-site binding model.
CONDITION SUMMARY: SD, n = 3
pKd: −log10 of the molar value.

SMILES DATA: NCCCCN
pKd: 7.38

---

ASSAYED SYSTEM: TphC.1
PROTOCOL SUMMARY: Isothermal titration calorimetry of the purified protein with its cognate ligand at 25 °C in SEC running buffer (25 mM sodium phosphate, 500 mM NaCl, pH 7.4), fitted with a one-site binding model.
CONDITION SUMMARY: SD, n = 3
PROPERTY NAME: Kd (µM)

COMPOUND: O=C(O)c1ccc(C(=O)O)cc1 [terephthalic acid]
PROPERTY NAME: Kd
MEASURED RESULT: 5.75

---

ASSAYED SYSTEM: PotF.2
CONDITION SUMMARY: SD, n = 3
PROPERTY NAME: Kd

MOLECULE: NCCCCN [putrescine]
MEASURED RESULT: 0.042 µM

---

ASSAYED SYSTEM: PotF.3 (Escherichia coli, UniProt P31133, A339P/E108N/E331D/F129Y/F266Y/K202N/N154D/S178A/S252A/S265A/T94S/V186I)
Sequence (P31133 27-370 T94S/E108N/F129Y/N154D/S178A/V186I/K202N/S252A/S265A/F266Y/E331D/A339P): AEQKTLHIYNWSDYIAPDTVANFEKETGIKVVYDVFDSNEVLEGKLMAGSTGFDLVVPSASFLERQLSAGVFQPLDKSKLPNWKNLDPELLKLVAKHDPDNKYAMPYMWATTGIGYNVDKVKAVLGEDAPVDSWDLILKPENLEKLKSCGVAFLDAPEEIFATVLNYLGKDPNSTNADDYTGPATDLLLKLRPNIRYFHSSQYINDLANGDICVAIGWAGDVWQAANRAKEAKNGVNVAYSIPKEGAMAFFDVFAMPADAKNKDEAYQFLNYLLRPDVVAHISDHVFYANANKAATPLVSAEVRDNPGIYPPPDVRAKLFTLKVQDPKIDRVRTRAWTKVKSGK
PROTOCOL SUMMARY: Isothermal titration calorimetry of the purified protein with its cognate ligand at 25 °C in SEC running buffer (25 mM sodium phosphate, 500 mM NaCl, pH 7.4), fitted with a one-site binding model.
CONDITION SUMMARY: SD, n = 3
Procedure: Ligands were dissolved in the specific buffer that was used in the size-exclusion chromatography (SEC) run of each protein purification (stored at −20 °C and thawed on the day of use). All protein and ligand samples were degassed and the temperature equilibrated to 25 °C for at least 10 min using a degassing station (TA Instruments). […]

COMPOUND: NCCCCN [putrescine]
Kd [nM]: 101

Origin of the recorded values: paper PMC12814167
